Could you please report measured combination Emax for the items listed next?
Test system: KYSE-150 (Esophageal Squamous Cell Carcinoma)
Assay: combination Emax (second highest fraction inhibited in the dose matrix, 72 h); higher = more inhibition; extreme values may be limits of the assay
One number for each entry.

| Molecule | System Name | combination Emax |
| --- | --- | --- |
| NC1(C(=O)N[C@@H](CCO)c2ccc(Cl)cc2)CCN(c2ncnc3[nH]ccc23)CC1 [Capivasertib] + CC(C)n1c(=O)n(C)c2cnc3cc(F)c(-c4ccc(OCCCN5CCCCC5)nc4)cc3c21 [AZD1390] (first compound max 10 µM, 7x7, partner max 0.3 µM) | KYSE-150 (Esophageal Squamous Cell Carcinoma) | 0.375 |

Turning to the following molecule.
Field request: combination Emax | item: NC1(C(=O)N[C@@H](CCO)c2ccc(Cl)cc2)CCN(c2ncnc3[nH]ccc23)CC1 [Capivasertib] + Cn1cnc2c(F)c(Nc3ccc(Br)cc3Cl)c(C(=O)NOCCO)cc21 [Selumetinib] (first compound max 10 µM, 7x7, partner max 10 µM)
0.743

----------
Kindly supply the reported combination Emax values for the records listed here.
System: KYSE-50 (Esophageal Squamous Cell Carcinoma)
Assay: combination Emax (second highest fraction inhibited in the dose matrix, 72 h); higher = more inhibition; extreme values may be limits of the assay
Answers are plain numbers.

Recorded combination Emax, per entry:
| Compound | Result Number |
| --- | --- |
| Cn1cnc2c(F)c(Nc3ccc(Br)cc3Cl)c(C(=O)NOCCO)cc21 [Selumetinib] + CC(C)n1c(=O)n(C)c2cnc3cc(F)c(-c4ccc(OCCCN5CCCCC5)nc4)cc3c21 [AZD1390] (first compound max 10 µM, 7x7, partner max 0.3 µM) | 0.21 |
| CC(=O)c1c(C)c2cnc(Nc3ccc(N4CCNCC4)cn3)nc2n(C2CCCC2)c1=O [Palbociclib] + CN(CC[C@H](CSC1=CC=CC=C1)NC2=C(C=C(C=C2)S(=O)(=O)NC(=O)C3=CC=C(C=C3)N4CCC(CC4)[C@H](C5=CC=CC=C5C6=CC=C(C=C6)Cl)O)S(=O)(=O)C(F)(F)F)CCO [AZD4320] (first compound max 10 µM, 7x7, partner max 1 µM) | 0.37 |
| CN(CCO)CC[C@H](CSc1ccccc1)Nc1ccc(S(=O)(=O)NC(=O)c2ccc(N3CCC([C@@H](O)c4ccccc4-c4ccc(Cl)cc4)CC3)cc2)cc1S(=O)(=O)C(F)(F)F [AZD4320] + C=CCn1c(=O)c2cnc(Nc3ccc(N4CCN(C)CC4)cc3)nc2n1-c1cccc(C(C)(C)O)n1 [AZD1775] (first compound max 1 µM, partner max 1 µM) | 0.476 |
| COc1nnc2ccc(N3CCC(c4ccc(OCCN5CCN(C)C(=O)[C@H]5C)cc4)CC3)nn12 [AZD5153] + CC1(C)CCC(CN2CCN(c3ccc(C(=O)NS(=O)(=O)c4ccc(NCC5CCOCC5)c([N+](=O)[O-])c4)c(Oc4cnc5[nH]ccc5c4)c3)CC2)=C(c2ccc(Cl)cc2)C1 [Venetoclax] (first compound max 1 µM, 7x7, partner max 1 µM) | 0.501 |
| COc1cccc(OCCCN)c1-c1cc(Nc2cnc(C#N)cn2)n[nH]1 [Prexasertib] + C=CCn1c(=O)c2cnc(Nc3ccc(N4CCN(C)CC4)cc3)nc2n1-c1cccc(C(C)(C)O)n1 [AZD1775] (first compound max 1 µM, partner max 1 µM) | 0.852 |
| Cc1c2c(nn1C)CSCc1cc(n(C)n1)CSc1cc(c3ccccc3c1)OCCCc1c(C(=O)O)n(C)c3c-2c(Cl)ccc13 [AZD5991] + Cn1cnc2c(F)c(Nc3ccc(Br)cc3Cl)c(C(=O)NOCCO)cc21 [Selumetinib] (first compound max 1 µM, 7x7, partner max 3 µM) | 0.292 |

Param readout = combination Emax; param system = KYSE-50 (Esophageal Squamous Cell Carcinoma); param query = CN(C)CCCOc1ccc(-c2ccc3ncc4c(c3c2)n(C2CCOCC2)c(=O)n4C)cn1 [AZD0156] + C=CCn1c(=O)c2cnc(Nc3ccc(N4CCN(C)CC4)cc3)nc2n1-c1cccc(C(C)(C)O)n1 [AZD1775] (first compound max 1 µM, partner max 1 µM) ; response: value
0.27

----------
System: HC-1 (Other Blood Carcinomas)
Experiment: Bliss excess, mean over the matrix (fraction); higher = more synergy
Outcome Measure: Bliss excess

| Compound | Bliss excess |
| --- | --- |
| Cc1cc2ncnn2cc1Nc1ncc2c(n1)n(C1CCOCC1)c(=O)n2C [AZD7648] + C=CCn1c(=O)c2cnc(Nc3ccc(N4CCN(C)CC4)cc3)nc2n1-c1cccc(C(C)(C)O)n1 [AZD1775] (first compound max 10 µM, partner max 1 µM) | -0.106 |

Now let's try a different one.
Observed Bliss excess on HC-1 (Other Blood Carcinomas) for CC1(C)CCC(CN2CCN(c3ccc(C(=O)NS(=O)(=O)c4ccc(NCC5CCOCC5)c([N+](=O)[O-])c4)c(Oc4cnc5[nH]ccc5c4)c3)CC2)=C(c2ccc(Cl)cc2)C1 [Venetoclax] + CCN(CCO)CCCOc1ccc2c(Nc3cc(CC(=O)Nc4cccc(F)c4)[nH]n3)ncnc2c1 [AZD2811] (first compound max 1 µM, 7x7, partner max 1 µM) , please.
0.177

----------
Test system: SCC-3 (B-Cell Non-Hodgkin's Lymphoma)
Assay: Bliss excess, mean over the matrix (fraction); higher = more synergy
Outcome Measure: Bliss excess
One number for each entry.

Illustrative cases are given below, each with its answer.
| Molecule | System Name | Bliss excess |
| --- | --- | --- |
| CC(=O)c1c(C)c2cnc(Nc3ccc(N4CCNCC4)cn3)nc2n(C2CCCC2)c1=O [Palbociclib] + CN(CC[C@H](CSC1=CC=CC=C1)NC2=C(C=C(C=C2)S(=O)(=O)NC(=O)C3=CC=C(C=C3)N4CCC(CC4)[C@H](C5=CC=CC=C5C6=CC=C(C=C6)Cl)O)S(=O)(=O)C(F)(F)F)CCO [AZD4320] (first compound max 10 µM, 7x7, partner max 1 µM) | SCC-3 (B-Cell Non-Hodgkin's Lymphoma) | -0.0046 |
| COc1cccc(OCCCN)c1-c1cc(Nc2cnc(C#N)cn2)n[nH]1 [Prexasertib] + C=CCn1c(=O)c2cnc(Nc3ccc(N4CCN(C)CC4)cc3)nc2n1-c1cccc(C(C)(C)O)n1 [AZD1775] (first compound max 1 µM, partner max 1 µM) | SCC-3 (B-Cell Non-Hodgkin's Lymphoma) | 0.051 |
| NC1(C(=O)N[C@@H](CCO)c2ccc(Cl)cc2)CCN(c2ncnc3[nH]ccc23)CC1 [Capivasertib] + CC(=O)c1c(C)c2cnc(Nc3ccc(N4CCNCC4)cn3)nc2n(C2CCCC2)c1=O [Palbociclib] (first compound max 10 µM, 7x7, partner max 10 µM) | SCC-3 (B-Cell Non-Hodgkin's Lymphoma) | 0.0001 |
| Cc1cc2ncnn2cc1Nc1ncc2c(n1)n(C1CCOCC1)c(=O)n2C [AZD7648] + C=CCn1c(=O)c2cnc(Nc3ccc(N4CCN(C)CC4)cc3)nc2n1-c1cccc(C(C)(C)O)n1 [AZD1775] (first compound max 10 µM, partner max 1 µM) | SCC-3 (B-Cell Non-Hodgkin's Lymphoma) | -0.0277 |

List reported Bliss excess for each of these molecules:
1. CN(CCO)CC[C@H](CSc1ccccc1)Nc1ccc(S(=O)(=O)NC(=O)c2ccc(N3CCC([C@@H](O)c4ccccc4-c4ccc(Cl)cc4)CC3)cc2)cc1S(=O)(=O)C(F)(F)F [AZD4320] + C[C@@H]1COCCN1C2=NC(=NC(=C2)C3(CC3)[S@](=N)(=O)C)C4=C5C=CNC5=NC=C4 [AZD6738] (first compound max 1 µM, 7x7, partner max 10 µM)
2. CC(=O)c1c(C)c2cnc(Nc3ccc(N4CCNCC4)cn3)nc2n(C2CCCC2)c1=O [Palbociclib] + Cn1cnc2c(F)c(Nc3ccc(Br)cc3Cl)c(C(=O)NOCCO)cc21 [Selumetinib] (first compound max 10 µM, 7x7, partner max 10 µM)
3. Cn1cnc2c(F)c(Nc3ccc(Br)cc3Cl)c(C(=O)NOCCO)cc21 [Selumetinib] + CC(C)n1c(=O)n(C)c2cnc3cc(F)c(-c4ccc(OCCCN5CCCCC5)nc4)cc3c21 [AZD1390] (first compound max 10 µM, 7x7, partner max 0.3 µM)

1: 0.014; 2: 0.0581; 3: 0.0273

----------
Tested on: OVISE (Ovarian Carcinoma)
Assay: combination Emax (second highest fraction inhibited in the dose matrix, 72 h); higher = more inhibition; extreme values may be limits of the assay
Would you kindly list combination Emax for each of these compounds?
Answers are plain numbers.

| Compound | Outcome Measure | Result Number |
| --- | --- | --- |
| NC1(C(=O)N[C@@H](CCO)c2ccc(Cl)cc2)CCN(c2ncnc3[nH]ccc23)CC1 [Capivasertib] + Cn1cnc2c(F)c(Nc3ccc(Br)cc3Cl)c(C(=O)NOCCO)cc21 [Selumetinib] (first compound max 10 µM, 7x7, partner max 10 µM) | combination Emax | 0.454 |

# input compound: COc1cccc(OCCCN)c1-c1cc(Nc2cnc(C#N)cn2)n[nH]1 [Prexasertib] + Cc1cc2ncnn2cc1Nc1ncc2c(n1)n(C1CCOCC1)c(=O)n2C [AZD7648] (first compound max 1 µM, 7x7, partner max 10 µM) ; wanted: its combination Emax
0.716
